Reference for the values: ChEMBL document CHEMBL5331100

Target: Telomerase reverse transcriptase (Homo sapiens, UniProt O14746)
Sequence (O14746 whole entry): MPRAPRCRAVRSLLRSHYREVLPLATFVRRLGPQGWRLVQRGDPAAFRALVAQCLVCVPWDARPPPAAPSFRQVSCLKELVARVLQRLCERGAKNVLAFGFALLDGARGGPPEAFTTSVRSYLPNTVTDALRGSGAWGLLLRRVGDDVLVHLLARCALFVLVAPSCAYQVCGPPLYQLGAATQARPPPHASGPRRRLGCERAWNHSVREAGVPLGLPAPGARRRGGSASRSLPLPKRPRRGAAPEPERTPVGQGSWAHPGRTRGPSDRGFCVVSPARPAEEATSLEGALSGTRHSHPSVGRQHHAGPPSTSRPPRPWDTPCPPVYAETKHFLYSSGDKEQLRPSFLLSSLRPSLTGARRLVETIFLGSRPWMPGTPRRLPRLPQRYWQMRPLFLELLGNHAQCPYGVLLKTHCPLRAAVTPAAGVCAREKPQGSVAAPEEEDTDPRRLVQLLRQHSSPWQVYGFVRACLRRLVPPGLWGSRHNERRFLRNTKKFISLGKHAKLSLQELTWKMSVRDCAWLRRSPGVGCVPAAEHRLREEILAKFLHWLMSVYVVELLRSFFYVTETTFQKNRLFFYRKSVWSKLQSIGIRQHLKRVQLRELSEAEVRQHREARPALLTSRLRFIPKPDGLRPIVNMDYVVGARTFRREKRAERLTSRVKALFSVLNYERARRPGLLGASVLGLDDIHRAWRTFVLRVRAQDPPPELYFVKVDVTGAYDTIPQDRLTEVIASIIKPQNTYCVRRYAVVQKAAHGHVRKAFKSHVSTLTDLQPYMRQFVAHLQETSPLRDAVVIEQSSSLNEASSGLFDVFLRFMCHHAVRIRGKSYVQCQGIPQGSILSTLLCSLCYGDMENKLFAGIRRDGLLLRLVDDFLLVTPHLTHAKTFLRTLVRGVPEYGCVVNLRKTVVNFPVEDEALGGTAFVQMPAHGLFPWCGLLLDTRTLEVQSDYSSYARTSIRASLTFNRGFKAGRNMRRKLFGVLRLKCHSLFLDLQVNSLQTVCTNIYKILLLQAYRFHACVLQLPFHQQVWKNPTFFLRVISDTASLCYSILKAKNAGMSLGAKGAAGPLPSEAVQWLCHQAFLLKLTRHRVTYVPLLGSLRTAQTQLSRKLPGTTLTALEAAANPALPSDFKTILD
Assay: Inhibition of recombinant His-tagged human telomerase expressed in insect cells preincubated for 15 mins followed by dNTPs and oligonucleotide primer and measured after 3 to 6 mins by PCR-based TRAP assay
measured_metric: pIC50
One number for each entry, as −log10 of the molar value.

stdin: In one line, give reported pIC50 of the entry `CCCCN(CCCC)CC(=O)n1nc(-c2cc3ccccc3oc2=O)cc1-c1ccccc1` .
stdout: 6.01

----------
Target: Telomerase reverse transcriptase (Homo sapiens)
Experiment: Inhibition of telomerase (unknown origin) by TRAP assay
measured_metric: pIC50
Answers are plain numbers, as −log10 of the molar value.

stdin: Tell us which pIC50 value is on record for `C=C1C(=O)[C@](C)(C(=O)OC)[C@@H](CCc2ccc(NCC(=O)O)cc2)O[C@H]1C`
stdout: 5.82
